# ASSAY OVERVIEW: Pharmacokinetic measurements in rats (intravenous and intra-tracheal dosing)
# Format: in vivo
# EXPERIMENTAL PARAMETERS: rat, i.t. dosing, 24 h
Property: BAL % administered dose at time (h); scope: individual molecules
Numeric only. Scale: %

Reference set (3 entries):
COC(=O)c1cc2c(cc1C)/C(=C(/Nc1ccc(C(=O)NOCCN(C)C)c(C)c1)c1ccccc1)C(=O)N2 [Example 5]; 0.2
COC(=O)c1ccc2c(c1)NC(=O)/C2=C(\Nc1ccc(C(=O)NOCCN(C)C)cc1)c1ccccc1 [Example 3]; 0.1
COC(=O)c1cc2c(cc1C)/C(=C(/Nc1ccc(C(=O)NOCCN3CCN(CCO)CC3)cc1)c1ccccc1)C(=O)N2 [Example 7]; 0.1

# evaluate next
[in] I would be grateful if you could share the reported BAL % administered dose at time (h) for COC(=O)c1ccc2c(c1)NC(=O)/C2=C(\Nc1ccc(N(C)C(=O)CN2CCN(C)CC2)cc1)c1ccccc1 [Nintedanib, reference compound] .
[out] 0.1

----------
# ASSAY OVERVIEW: Pharmacokinetic measurements in mice (intravenous and intra-nasal dosing)
# Type: in vivo
# EXPERIMENTAL PARAMETERS: male, C57BL/6J, lung, iv; mouse, i.v. dosing, 1.5 h, mean; read-out: lung concentration (nM) at time (h)
Property: concentration at 1.5 h; scope: individual molecules
Numeric only. Scale: nM

Reference set (2 entries):
COC(=O)c1cc2c(cc1C)/C(=C(/Nc1ccc(C(=O)NOCCN3CCN(C)CC3)cc1)c1ccccc1)C(=O)N2; 168
COC(=O)c1ccc2c(c1)NC(=O)/C2=C(\Nc1ccc(N(C)C(=O)CN2CCN(C)CC2)cc1)c1ccccc1 [Nintedanib, reference compound]; 1340

[in] I would be grateful if you could share the reported concentration at 1.5 h for `COC(=O)c1cc2c(cc1C)/C(=C(/Nc1ccc(C(=O)NOCCN(C)C)c(C)c1)c1ccccc1)C(=O)N2` .
[out] 416

----------
# EXPERIMENTAL SYSTEM: PDGFRβ (Homo sapiens (Human), UniProt P09619)
# Sequence (P09619 33-1106): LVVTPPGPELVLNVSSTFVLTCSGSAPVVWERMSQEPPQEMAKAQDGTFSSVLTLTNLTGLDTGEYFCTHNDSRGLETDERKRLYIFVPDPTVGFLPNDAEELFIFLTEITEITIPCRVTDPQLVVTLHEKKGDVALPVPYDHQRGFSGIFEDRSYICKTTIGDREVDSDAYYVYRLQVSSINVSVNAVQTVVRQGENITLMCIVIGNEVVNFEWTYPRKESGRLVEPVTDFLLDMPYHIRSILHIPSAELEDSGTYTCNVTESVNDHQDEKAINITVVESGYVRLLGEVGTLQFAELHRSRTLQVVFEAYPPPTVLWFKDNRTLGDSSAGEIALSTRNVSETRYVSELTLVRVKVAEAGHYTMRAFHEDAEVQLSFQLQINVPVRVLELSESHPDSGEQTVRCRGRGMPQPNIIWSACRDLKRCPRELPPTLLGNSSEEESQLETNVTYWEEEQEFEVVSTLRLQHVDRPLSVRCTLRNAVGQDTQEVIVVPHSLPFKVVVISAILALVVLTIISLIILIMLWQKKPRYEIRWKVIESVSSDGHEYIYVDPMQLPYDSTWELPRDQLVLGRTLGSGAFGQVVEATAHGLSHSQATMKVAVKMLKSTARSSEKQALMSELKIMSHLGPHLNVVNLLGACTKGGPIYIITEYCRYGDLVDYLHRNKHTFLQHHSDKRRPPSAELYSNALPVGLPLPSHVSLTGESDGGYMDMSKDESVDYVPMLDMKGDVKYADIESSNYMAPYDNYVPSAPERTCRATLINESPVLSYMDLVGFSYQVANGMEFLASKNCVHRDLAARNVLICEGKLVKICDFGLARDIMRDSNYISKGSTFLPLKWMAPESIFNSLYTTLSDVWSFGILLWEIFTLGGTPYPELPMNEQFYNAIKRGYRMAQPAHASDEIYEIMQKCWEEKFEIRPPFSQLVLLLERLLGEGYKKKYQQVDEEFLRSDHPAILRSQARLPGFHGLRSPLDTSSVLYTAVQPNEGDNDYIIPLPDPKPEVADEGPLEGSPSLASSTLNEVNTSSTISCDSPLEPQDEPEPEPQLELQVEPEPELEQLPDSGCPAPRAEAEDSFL
# EXPERIMENTAL PARAMETERS: read-out: Ki PDGFRβ; mean, n = 2 unless otherwise indicated
REPORTED PROPERTY: pKi
// scale note: pKi = -log10(conc_M); give the bare number

Reference set (6 entries):
COC(=O)c1cc2c(cc1C)/C(=C(/Nc1ccc(C(=O)NOCCN3CCN(CCO)CC3)cc1)c1ccccc1)C(=O)N2; 8.18
COC(=O)c1cc2c(cc1C)/C(=C(/Nc1ccc(C(=O)NOCCCN(C)C)c(C)c1)c1ccccc1)C(=O)N2; 8.13
COC(=O)c1ccc2c(c1)NC(=O)/C2=C(\Nc1ccc(C(=O)NOCCN2CCOCC2)cc1)c1ccccc1; 7.94
COC(=O)c1cc2c(cc1C)/C(=C(/Nc1ccc(C(=O)NOC3CCN(C)CC3)c(C)c1)c1ccccc1)C(=O)N2; 8.18
COC(=O)c1ccc2c(c1)NC(=O)/C2=C(\Nc1ccc(S(=O)(=O)N(C)OCCN2CCN(C)CC2)cc1)c1ccccc1; 7.70
COC(=O)c1ccc2c(c1)NC(=O)/C2=C(\Nc1ccc(C(=O)NOCCN2CCC(O)CC2)cc1)c1ccccc1; 8.12

[in] I would be grateful if you could share the reported pKi for `COC(=O)c1ccc2c(c1)NC(=O)/C2=C(\Nc1ccc(C(=O)NOCCN2[C@H](C)CCC[C@@H]2C)cc1)c1ccccc1` .
[out] 6.99

----------
# ASSAY OVERVIEW: Pharmacokinetic measurements in rats (intravenous and intra-tracheal dosing)
# Assay type: in vivo
# EXPERIMENTAL PARAMETERS: rat, i.t. dosing, 24 h
Property: BAL % administered dose at time (h); scope: individual molecules
Numeric only. Scale: %

COC(=O)c1cc2c(cc1C)/C(=C(/Nc1ccc(C(=O)NOCCN3CCN(C)CC3)cc1)c1ccccc1)C(=O)N2; 0.1
COC(=O)c1ccc2c(c1)NC(=O)/C2=C(\Nc1ccc(S(=O)(=O)NOCCN(C)C)cc1)c1ccccc1; 0.1

# evaluate next
[in] I would be grateful if you could share the reported BAL % administered dose at time (h) for `COC(=O)c1ccc2c(c1)NC(=O)/C2=C(\Nc1ccc(C(=O)NOCCN2CCN(C)CC2)cc1)c1ccccc1` .
[out] 0.1

----------
# ASSAY OVERVIEW: Pharmacokinetic measurements in mice (intravenous and intra-nasal dosing)
# Assay type: in vivo
# EXPERIMENTAL PARAMETERS: male, C57BL/6J, whole blood, iv; mouse, i.v. dosing, mean; read-out: t½ (converted)
REPORTED PROPERTY: half-life (h)
Numeric only. Scale: h

COC(=O)c1ccc2c(c1)NC(=O)/C2=C(\Nc1ccc(N(C)C(=O)CN2CCN(C)CC2)cc1)c1ccccc1 [Nintedanib, reference compound]; 2

# evaluate next
[in] I would be grateful if you could share the reported half-life for `COC(=O)c1cc2c(cc1C)/C(=C(/Nc1ccc(C(=O)NOCCN(C)C)c(C)c1)c1ccccc1)C(=O)N2` .
[out] 2.6

----------
Property: BAL % administered dose at time (h); scope: individual molecules
# ASSAY OVERVIEW: Pharmacokinetic measurements in rats (intravenous and intra-tracheal dosing)
# Assay type: in vivo
# EXPERIMENTAL PARAMETERS: rat, i.v. dosing, 0.1 h
Numeric only. Scale: %

[in] I would be grateful if you could share the reported BAL % administered dose at time (h) for `COC(=O)c1ccc2c(c1)NC(=O)/C2=C(\Nc1ccc(C(=O)NOCCN(C)C)cc1)c1ccccc1` .
[out] 0.03

[in] I would be grateful if you could share the reported BAL % administered dose at time (h) for `COC(=O)c1cc2c(cc1C)/C(=C(/Nc1ccc(C(=O)NOCCN(C)C)c(C)c1)c1ccccc1)C(=O)N2` .
[out] 0.04

[in] I would be grateful if you could share the reported BAL % administered dose at time (h) for `COC(=O)c1cc2c(cc1C)/C(=C(/Nc1ccc(C(=O)NOCCN3CCN(C)CC3)cc1)c1ccccc1)C(=O)N2` .
[out] 0.06

[in] I would be grateful if you could share the reported BAL % administered dose at time (h) for `COC(=O)c1ccc2c(c1)NC(=O)/C2=C(\Nc1ccc(S(=O)(=O)NOCCN(C)C)cc1)c1ccccc1` .
[out] 0.09

[in] I would be grateful if you could share the reported BAL % administered dose at time (h) for COC(=O)c1ccc2c(c1)NC(=O)/C2=C(\Nc1ccc(N(C)C(=O)CN2CCN(C)CC2)cc1)c1ccccc1 [Nintedanib, reference compound] .
[out] 0.06

[in] I would be grateful if you could share the reported BAL % administered dose at time (h) for `COC(=O)c1ccc2c(c1)NC(=O)/C2=C(\Nc1ccc(C(=O)NOCCN2CCN(C)CC2)cc1)c1ccccc1` .
[out] 0.01

----------
# ASSAY OVERVIEW: Pharmacokinetic measurements in rats (intravenous and intra-tracheal dosing)
# Type: in vivo
# EXPERIMENTAL PARAMETERS: male, CD, lung/plasma, other: intra-tracheal; rat, i.t. dosing, 6 h; read-out: lung/plasma conc ratio at time(h)
REPORTED PROPERTY: Kp at 6 h
Note: the reply should be a number with no unit written.

COC(=O)c1cc2c(cc1C)/C(=C(/Nc1ccc(C(=O)NOCCN(C)C)c(C)c1)c1ccccc1)C(=O)N2; 461

# evaluate next
[in] I would be grateful if you could share the reported Kp at 6 h for `COC(=O)c1cc2c(cc1C)/C(=C(/Nc1ccc(C(=O)NOCCN3CCN(CCO)CC3)cc1)c1ccccc1)C(=O)N2` .
[out] 114

----------
# ASSAY OVERVIEW: Pharmacokinetic measurements in rats (intravenous and intra-tracheal dosing)
# Type: in vivo
# EXPERIMENTAL PARAMETERS: male, CD, lung, other: intra-tracheal; rat, i.t. dosing, 1.5 h; read-out: lung concentration (nM) at time (h)
REPORTED PROPERTY: concentration at 1.5 h (nM)
Numeric only. Scale: nM

Reference set (5 entries):
COC(=O)c1ccc2c(c1)NC(=O)/C2=C(\Nc1ccc(C(=O)NOCCN(C)C)cc1)c1ccccc1; 1680
COC(=O)c1cc2c(cc1C)/C(=C(/Nc1ccc(C(=O)NOCCN(C)C)c(C)c1)c1ccccc1)C(=O)N2; 1710
COC(=O)c1cc2c(cc1C)/C(=C(/Nc1ccc(C(=O)NOCCN3CCN(CCO)CC3)cc1)c1ccccc1)C(=O)N2; 881
COC(=O)c1cc2c(cc1C)/C(=C(/Nc1ccc(C(=O)NOCCN3CCN(C)CC3)cc1)c1ccccc1)C(=O)N2; 11900
COC(=O)c1ccc2c(c1)NC(=O)/C2=C(\Nc1ccc(S(=O)(=O)NOCCN(C)C)cc1)c1ccccc1; 1370

# evaluate next
[in] I would be grateful if you could share the reported concentration at 1.5 h for `COC(=O)c1ccc2c(c1)NC(=O)/C2=C(\Nc1ccc(C(=O)NOCCN2CCN(C)CC2)cc1)c1ccccc1` .
[out] 1540
